biological target: T1, mouse PD-L1 on mPD-L1/CHO-K1 overexpressing cells (mouse, UniProt Q9EP73 19-290); test: flow cytometry on mPD-L1/CHO-K1 cells (sheet label mPD-1/CHO-K1)
T1 construct: whole, on cells; also called mouse PD-L1-expressing cells
T1 sequence (Q9EP73 19-290): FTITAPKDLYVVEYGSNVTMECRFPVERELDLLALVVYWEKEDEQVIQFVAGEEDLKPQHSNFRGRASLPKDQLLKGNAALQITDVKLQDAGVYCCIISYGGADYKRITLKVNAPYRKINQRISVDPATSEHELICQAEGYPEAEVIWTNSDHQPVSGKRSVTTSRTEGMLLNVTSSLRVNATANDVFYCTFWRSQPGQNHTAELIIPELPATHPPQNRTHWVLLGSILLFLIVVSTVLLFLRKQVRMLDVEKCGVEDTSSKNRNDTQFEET
assay readout: Mean in M1
Lab note: jot down the number only; don't add units.

- binder: "ME4 anti-PD-L1 antibody (IgG form) (antibody, V domains shown, Converted to IgG with the vectors pIgGHD-6A6Hvy and pIgGLD-6A6Lgt; Expressed in Expi293F cells) VH: QVQLVESGAEVKKPGSSVKVSCKASGGTFNNYAVSWVRQAPGQGLEWMGRIIPILGIANYAQTFQGRVTITADKSTTTAYMELSSLRSEDTAVYYCARSYSGYAEGAFDIWGQGTMVTVSS VL: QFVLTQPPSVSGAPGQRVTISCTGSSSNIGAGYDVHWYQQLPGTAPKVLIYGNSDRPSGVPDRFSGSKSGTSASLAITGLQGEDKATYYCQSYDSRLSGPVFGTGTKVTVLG"
  Mean in M1: 20.6
- binder: "ME4.A11 anti-PD-L1 antibody (IgG form) (antibody, V domains shown) VH: QVQLVESGAEVKKPGSSVKVSCKASGGTFNNYAVSWVRQAPGQGLEWMGRIIPILGIANYAQTFQGRVTITADKSTTTAYMELSSLRSEDTAVYYCARSRGGYAHGAFDIWGQGTMVTVSS VL: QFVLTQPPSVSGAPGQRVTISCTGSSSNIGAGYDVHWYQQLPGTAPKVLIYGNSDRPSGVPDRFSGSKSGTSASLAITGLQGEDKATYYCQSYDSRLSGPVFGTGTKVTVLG"
  Mean in M1: 14.5

**Q:** What value of Mean in M1 has been reported for the following binder? ME4.B10 anti-PD-L1 antibody (IgG form) (antibody, V domains shown) VH: QVQLVESGAEVKKPGSSVKVSCKASGGTFNNYAVSWVRQAPGQGLEWMGRIIPILGIANYAQTFQGRVTITADKSTTTAYMELSSLRSEDTAVYYCARSARGYAHGAFDIWGQGTMVTVSS VL: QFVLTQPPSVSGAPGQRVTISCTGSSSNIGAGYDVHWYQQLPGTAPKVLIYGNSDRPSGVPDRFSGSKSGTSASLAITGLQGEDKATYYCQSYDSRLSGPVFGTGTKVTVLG
**A:** 15.4

All values here come from patent US20210054078A1.
